Measured growth by item
- Test system: HS 578T breast
- Assay Comment: NCI-60 one-dose screen, 48 h (100 = growth as untreated, 0 = no growth, -100 = all killed)
- Stated Conditions: 10 µM unless noted
The panel holds about 83,000 compounds, 20% with a hit somewhere; the sample as a whole holds those more often.
Please state the figure in %; there is no need to write the unit.

CCOC(=O)C(Cc1ccccc1)n1c(O)c(C=Nc2ccc(C(=O)OCCN(CC)CC)cc2)sc1=O (stereo not given) has a reported growth of 88.1

COC1=CC(c2ccc[nH]2)=N/C1=C\c1[nH]c(C)c(C(=O)CCCCC(=O)NCc2ccccc2)c1C has a reported growth of 72
